test: differential killing of epithelial or mesenchymal cells, primary screen, imaging, PC-3E GFP, TEM4-18 mCherry, co-culture (AID 1345086); details: imaging cell counts, measured here: epithelial PC-3E GFP cell survival, at 1 µM;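 further: cells exposed to compound for 72 h before imaging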
Recorded normalised cell number, one value per entry.
VALUE TYPE: normalised cell number

>>> obs_value("CC(=O)O[C@H]1C[C@H](O[C@H]2[C@@H](O)C[C@H](O[C@H]3[C@@H](O)C[C@H](O[C@H]4CC[C@@]5(C)C(CCC6C5C[C@@H](O)[C@]5(C)[C@@H](C7=CC(=O)OC7)CC[C@]65O)C4)O[C@@H]3C)O[C@@H]2C)O[C@H](C)[C@H]1O[C@@H]1O[C@H](CO)[C@@H](O)[C@H](O)[C@H]1O (some centres undefined)")
0.27
>>> obs_value("CC(=O)Oc1ccc(/C=C/c2cc(OC(C)=O)cc(OC(C)=O)c2)cc1")
0.98
>>> obs_value("O=C1c2ccccc2C(=O)c2ccccc21")
1.17
>>> obs_value("N#Cc1cc(I)c(O)c(I)c1")
1.08
>>> obs_value("CCCCOC(=O)c1ccccc1C(=O)OCCCC")
0.78
>>> obs_value("CC[n+]1c(-c2ccccc2)c2cc(N)ccc2c2ccc(N)cc21")
0.31
>>> obs_value("CCC(COC(=O)c1cc(OC)c(OC)c(OC)c1)(c1ccccc1)N(C)C (centres undefined)")
1.04
>>> obs_value("S=C=NCc1ccccc1")
1.15
>>> obs_value("C[C@]12CCC3[C@@H](CC[C@@]45O[C@@H]4C(O)=C(C#N)C[C@]35C)C1CC[C@@H]2O (some centres undefined)")
1.16

====

assay: liver-stage malaria parasite growth inhibition, primary screen, cell-based, HepG2, luciferase luminescence, HepG2 viability (AID 624349);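 further: 100% = mean of DMSO negative control wells on the same plate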; conditions: P. berghei liver stage in HepG2, luciferase luminescence, concentration not given here; measured here: HepG2 viability without parasites
Cut-off 90% on viability: below means MET, at or above means NOT MET.

>>> label_value("C=C1[C@@H]2CC[C@H]3[C@]4(C)C[C@H](O[C@H]5O[C@H](CO)[C@@H](OS(=O)(=O)O)[C@H](OS(=O)(=O)O)[C@H]5OC(=O)CC(C)C)C[C@@H](C(=O)O)[C@H]4CC[C@]3(C2)[C@H]1O")
"NOT MET"
>>> label_value("Oc1cc2c(cc1O)[C@H]1c3ccccc3CN[C@@H]1CC2")
"MET"
>>> label_value("CCOC(=O)c1cncn1[C@@H](C)c1ccccc1")
"NOT MET"
>>> label_value("C[C@@]12N[C@@H](Cc3ccccc31)c1ccccc12")
"NOT MET"

====

assay: polyglutamine-triggered caspase-3 activation inhibitors, cell-based (AID 1583); conditions: polyglutamine-induced caspase-3 activation, cell assay; stronger effect = higher value;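 tested at 10 µM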
VALUE TYPE: inhibition (%)

>>> obs_value("O=[N+]([O-])c1cc([As](=O)(O)O)ccc1O")
4.6
>>> obs_value("O=c1ccc2cc(O[C@@H]3O[C@H](CO)[C@@H](O)[C@H](O)[C@H]3O)c(O)cc2o1")
-24.4
>>> obs_value("CC[C@@H](CO)NC(=O)[C@@H]1C=C2c3cccc4[nH]cc(c34)C[C@H]2N(C)C1")
8.64
>>> obs_value("CNc1ccc2oc(C[C@@H]3OC4(CC[C@@H]3C)O[C@H](C(C)C(=O)c3ccc[nH]3)[C@H](C)C[C@H]4C)nc2c1C(=O)O (stereo not given in full)")
86.4
>>> obs_value("CN1C2CCC1C(C(=O)O)C(OC(=O)c1ccccc1)C2 (stereo not given)")
-11.5
